- test.method.notes: Toxicity liver stage against HepG2, at 10uM
- Assay type: cell-based
- Design: test concentration 10 uM, cell line HepG2-A16-CD81EGFP
- condition.notes: human, HepG2-A16-CD81EGFP cells; read-out: INHIBITION
# cytotoxicity at 10 µM listing for each entry below
Numeric answer only, unit % assumed.

>>> print(df.to_string())
                                   compound         assay_endpoint  endpoint_value
0  CC(C)C1=NOC(c2nc(Cc3ccccc3)no2)C1 (centres undefined)  cytotoxicity at 10 µM           -3.94
1          Cc1ccsc1C(=O)N1CCCN(Cc2cscn2)CC1  cytotoxicity at 10 µM           -12.4
2  CC(=O)NCCNC(=O)NCc1ccc(-n2ccc(C(F)(F)F)n2)cc1  cytotoxicity at 10 µM              -6
3  CN(C)Cc1cn(-c2ccccc2C(=O)NCC2CCCCN2C)cn1 (centres undefined)  cytotoxicity at 10 µM           -0.94
4  C[C@@H]1CN(C2(C(=O)N3CCOCC3)Cc3ccccc3C2)C[C@H](C)O1  cytotoxicity at 10 µM            1.12
5     O=C(CCCNC(=O)Nc1ccc(F)cc1)Nc1cn[nH]c1  cytotoxicity at 10 µM            9.37

stdin: What value of cytotoxicity at 10 µM has been reported for the following compound? Cc1ccc(CN2CC[C@H]3[C@H]2CCN3S(C)(=O)=O)s1
stdout: 2.38

stdin: Record request: cytotoxicity at 10 µM value, item O=S(=O)(NC[C@H]1C[C@@H]2CCN1C[C@@H]2CN1CCCCC1)c1ccccc1
stdout: -4.32
